List of z-score values.
- assay-text: S. pombe growth modifiers, basal conditions – strain 972, OD600, 24 h, no modulator, primary screen (AID 1090);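 further: basal condition with compound alone and no growth modifier present; test concentration not given here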
- setup-conditions: S. pombe 972 growth, higher = more signal, called active from +8 up or from −8 down
Activity calls are given as the source filed them.

Here are 3 compounds together with their reported answers.
| compound | z-score |
| --- | --- |
| CC[C@@H]1C=C(C(=O)O)[C@H](c2cccc3ccccc23)N1S(=O)(=O)c1ccc(C)cc1 | 1.49 (inactive) |
| CC(C)NC(=O)[C@@]1(Cc2ccccc2I)c2ccccc2C(=O)N(Cc2ccccc2Cl)[C@H]1c1ccc(CO)cc1 | -0.199 (inactive) |
| OCC1C=C(/C=C/c2ccccc2)CN1Cc1ccccc1Br (centres undefined) | -11.3 (active) |

## Task Name the recorded z-score of the compound listed here: `NC(=O)NCC#Cc1ccc2c(c1)[C@]1(C(=O)N2)[C@H](C(=O)O)[C@H]2C(=O)O[C@H](c3ccccc3)[C@H](c3ccccc3)N2[C@@H]1c1ccc(O)cc1`
## Result -0.856 (inactive)

## Task Name the recorded z-score of the compound listed here: C=CCC(OC(C)=O)[C@@H]1[C@@H](N(Cc2ccc(-c3cccc(C(F)(F)F)c3)o2)C(=O)Cc2ccc(OC)cc2)c2cc(OCCCO)ccc2N1C(=O)c1ccc2ccccc2c1 (some centres undefined)
## Result 0.428 (inactive)

## Task Name the recorded z-score of the compound listed here: `O=C(NCCN1CCOCC1)[C@@H]1c2ccccc2C(=O)N(Cc2cc(C(F)(F)F)cc(C(F)(F)F)c2)[C@H]1c1ccc(CO)cc1`
## Result -0.091 (inactive)

## Task Name the recorded z-score of the compound listed here: `COCCOC(=O)N1C(=O)[C@@]2(c3cc(C#CC4=CCCCC4)ccc31)[C@H](c1ccc(OCCO)cc1)N1[C@H](c3ccccc3)[C@H](c3ccccc3)OC(=O)[C@H]1[C@@H]2C(=O)N1CCc2cc(OC)c(OC)cc2C1`
## Result 0.535 (inactive)

## Task Name the recorded z-score of the compound listed here: OCCCC1=CC(C2CC2)N(Cc2cccc(OC(F)(F)F)c2)CC1 (centres undefined)
## Result -2.33 (inactive)

====

- tested-target: Homeobox protein Hox-A13 (Mus musculus)
- assay-text: disruptors of Hoxa13 oligonucleotide interaction – biochemical, fluorescence polarization, labeled oligonucleotide, primary screen (AID 1185)
- setup-conditions: Hoxa13:DNA binding, 15 min, higher = more signal, called active from +8 up or from −8 down
List of z-score values.
Answer as a number with no unit attached.

Here are 6 compounds together with their reported answers.
| compound | tested-target | z-score |
| --- | --- | --- |
| O=C1C2C=CC(C(O)COCc3ccccc3)N(Nc3ccc([N+](=O)[O-])cc3)C2C(=O)N1c1ccccc1 (centres undefined) | Homeobox protein Hox-A13 (Mus musculus) | -3.13 |
| CCOc1cc(C(O)C2C=CC3C(=O)N(c4ccccc4)C(=O)C3N2Nc2ccc(C(C)C)cc2)ccc1O (centres undefined) | Homeobox protein Hox-A13 (Mus musculus) | -4.72 |
| Cc1ccc(S[C@]2(C(=O)NCC(C)C)CC(=O)N(Cc3cc(C(F)(F)F)cc(C(F)(F)F)c3)[C@@H]2c2ccc(CO)cc2)cc1 | Homeobox protein Hox-A13 (Mus musculus) | -2.19 |
| CC(C)[C@@H](C(=O)O)n1cc(C2(O)CCCCC2)nn1 | Homeobox protein Hox-A13 (Mus musculus) | -0.619 |
| C=CCN1C(=O)[C@]2(O[C@H](CCO)[C@@H]([Si](C)(C)c3ccc(OC)cc3)[C@@H]2C)c2cc(N(C=O)c3ccccc3)ccc21 | Homeobox protein Hox-A13 (Mus musculus) | -3.67 |
| COc1cc2c(cc1O)C(c1cccs1)N(Cc1cccc(OC(F)(F)F)c1)CC2 (centres undefined) | Homeobox protein Hox-A13 (Mus musculus) | -2.17 |

Kindly review the next compound as well.
## Task Name the recorded z-score of the compound listed here: `C=CC[C@@]1(C(=O)N2CCCCC2)N=C(c2ccc(OCCCO)cc2)O[C@@H]1c1ccccc1CN=[N+]=[N-]`
## Result -0.0816

Source listed as PubChem BioAssay.
